Values compiled from patent US20260250318A1.

- Tested on: brain, spinal cord, and DRG of the NHPs
- Experimental details: NGS fold enrichment of synthetic library (passage 3) in NHPs, first cross-species screen
- Assay type: in vivo, cynomolgus macaques (Macaca fascicularis)
- Run parameters: synthetic library passage 3, intravenous, RNA NGS, brain of NHPs, relative to wild-type AAV9
Friendly reminder: Fold enrichment over AAV9 in the brain of NHPs below 2 fold is met, at or above is not met.

A record lists GSGQNQSQNHLQQT . Is its Fold enrichment over AAV9 in the brain of NHPs below 2 fold?
met

Strictly below 2 fold: is that where Fold enrichment over AAV9 in the brain of NHPs of GSAGISPSGQNQQT sits?
met

Consider GSGQNQRGALATQT . Does its Fold enrichment over AAV9 in the brain of NHPs lie strictly below 2 fold?
met

Identify whether the sequence GSSPAPNSGQNQQT records Fold enrichment over AAV9 in the brain of NHPs below 2 fold.
met

Please indicate whether the reported Fold enrichment over AAV9 in the brain of NHPs of GSVTHGISGQNQQT is strictly below 2 fold.
not met

A record lists GSVSTHSSGQNQQT . Is its Fold enrichment over AAV9 in the brain of NHPs below 2 fold?
not met

Does GSNGFTALGQNQQT have Fold enrichment over AAV9 in the brain of NHPs strictly under 2 fold?
not met

Does the reported Fold enrichment over AAV9 in the brain of NHPs of the following sequence sit strictly below 2 fold? GMTSHSVSGQNQQT
met

Item GSGQNQYSQSSMQT : Fold enrichment over AAV9 in the brain of NHPs beneath 2 fold, strictly?
met

Consider the sequence GSGQNQQSTGTSRT . Is its Fold enrichment over AAV9 in the brain of NHPs strictly less than 2 fold?
met

In the record for GSGQNQQTVGNPAT , is Fold enrichment over AAV9 in the brain of NHPs less than 2 fold?
met

Report whether reported Fold enrichment over AAV9 in the brain of NHPs is lower than 2 fold (strictly) for GSGQNHGVLSNQQT
not met

Please determine if GSGQNQQTSPHNHT is below 2 fold in terms of Fold enrichment over AAV9 in the brain of NHPs.
not met

Would you kindly verify if Fold enrichment over AAV9 in the brain of NHPs of GSHSQSGHGQNQQT is strictly less than 2 fold?
met

Lab note: confirm whether the reported Fold enrichment over AAV9 in the brain of NHPs for this sequence is below 2 fold, equality not counting. sequence: GSGQNQQTKVGHSA
met

Could you please tell me whether Fold enrichment over AAV9 in the brain of NHPs recorded for GSGQMGRQAVNQQT is less than 2 fold?
met

Quick check: does GAVGHSYSGQNQQT have Fold enrichment over AAV9 in the brain of NHPs under 2 fold?
met

State whether 2 fold exceeds Fold enrichment over AAV9 in the brain of NHPs recorded for GSGTHNSAIQNQQT .
met

In the record for GSGHSPLPQQNQQT , is Fold enrichment over AAV9 in the brain of NHPs less than 2 fold?
met

Does the reported Fold enrichment over AAV9 in the brain of NHPs of GSGQARAHRGNQQT stay below 2 fold?
met

Hello, is Fold enrichment over AAV9 in the brain of NHPs of the following sequence strictly smaller than 2 fold? GSGYKAARPQNQQT
met

Is the reported Fold enrichment over AAV9 in the brain of NHPs for GNSMERTSGQNQQT strictly below 2 fold?
not met

Please check: Fold enrichment over AAV9 in the brain of NHPs for GSGQMASRESNQQT , strictly under 2 fold or not?
not met

Answer whether the sequence GSGEYSRSGQNQQT has Fold enrichment over AAV9 in the brain of NHPs strictly less than 2 fold
not met

In plain terms, does GSGLLPLSSQNQQT come in under 2 fold for Fold enrichment over AAV9 in the brain of NHPs?
not met

Hello, is Fold enrichment over AAV9 in the brain of NHPs of the following sequence strictly smaller than 2 fold? GSGQNQQPLDTSRT
met

For GSGTQIPSQQNQQT , is the recorded Fold enrichment over AAV9 in the brain of NHPs below the cut-off of 2 fold?
not met

# check: Fold enrichment over AAV9 in the brain of NHPs < 2 fold for GSGYASHVQQNQQT
not met

Find out if reported Fold enrichment over AAV9 in the brain of NHPs for GMSAHMSSGQNQQT is less than 2 fold
not met

In plain terms, does GSHTLVVSGQNQQT come in under 2 fold for Fold enrichment over AAV9 in the brain of NHPs?
met

# strict comparison: is reported Fold enrichment over AAV9 in the brain of NHPs < 2 fold? input = GYEVLGSSGQNQQT
not met

Does GSGQNQQVHLSTGT have Fold enrichment over AAV9 in the brain of NHPs strictly under 2 fold?
met

Please indicate whether the reported Fold enrichment over AAV9 in the brain of NHPs of GGRNGHTVGQNQQT is strictly below 2 fold.
not met

Input GSGQNAHAKEGQQT ; condition: Fold enrichment over AAV9 in the brain of NHPs strictly below 2 fold. Does it hold?
met

Problem: For the sequence GSGQNQQSKQQVLT , is Fold enrichment over AAV9 in the brain of NHPs under 2 fold?
met

Hi there! Is Fold enrichment over AAV9 in the brain of NHPs for GSGSHRDVSQNQQT below 2 fold, do you know?
not met

Would you kindly verify if Fold enrichment over AAV9 in the brain of NHPs of GSGHLPQSAQNQQT is strictly less than 2 fold?
not met

Given the entry GSGPWSAGLQNQQT , would its reported Fold enrichment over AAV9 in the brain of NHPs be below 2 fold?
met

Determine if GRHLVTASGQNQQT shows Fold enrichment over AAV9 in the brain of NHPs strictly lower than 2 fold.
met

API: query returns whether the sequence falls strictly under 2 fold in Fold enrichment over AAV9 in the brain of NHPs. Query: GSSVGSPIGQNQQT
met

Below 2 fold on Fold enrichment over AAV9 in the brain of NHPs? Entry GSGQSMTLHLNQQT
met

Strictly below 2 fold in Fold enrichment over AAV9 in the brain of NHPs? GSGQNQHLSSFVQT
met

Quick check: does GSAAMSVRGQNQQT have Fold enrichment over AAV9 in the brain of NHPs under 2 fold?
met

Lab log: compare recorded Fold enrichment over AAV9 in the brain of NHPs with 2 fold; is it strictly lower for GSGLSHATQQNQQT ?
not met

Strictly below 2 fold in Fold enrichment over AAV9 in the brain of NHPs? GSGHIYVGIQNQQT
not met

Take the sequence GSGQDMKQHHNQQT and say whether its Fold enrichment over AAV9 in the brain of NHPs is less than 2 fold.
met

Here's an entry: GSGQYASSIPNQQT . Is its Fold enrichment over AAV9 in the brain of NHPs below 2 fold?
not met

State whether 2 fold exceeds Fold enrichment over AAV9 in the brain of NHPs recorded for GSGQNQQHANLNQT .
met

Strictly below 2 fold: is that where Fold enrichment over AAV9 in the brain of NHPs of GSGYNQPHLQNQQT sits?
met

Identify whether the sequence GFSSAVHSGQNQQT records Fold enrichment over AAV9 in the brain of NHPs below 2 fold.
met

Strictly below 2 fold: is that where Fold enrichment over AAV9 in the brain of NHPs of GDMTRSSSGQNQQT sits?
met

Item GSGLLHRAQQNQQT : Fold enrichment over AAV9 in the brain of NHPs beneath 2 fold, strictly?
met

For GSGHLFQSGQNQQT , is the recorded Fold enrichment over AAV9 in the brain of NHPs below the cut-off of 2 fold?
met

Given GSRMTQQFGQNQQT , is recorded Fold enrichment over AAV9 in the brain of NHPs strictly lower than 2 fold?
met

Lab note: confirm whether the reported Fold enrichment over AAV9 in the brain of NHPs for this sequence is below 2 fold, equality not counting. sequence: GSGQNQQSGTFLST
met

Input GVKGVGHSGQNQQT ; condition: Fold enrichment over AAV9 in the brain of NHPs strictly below 2 fold. Does it hold?
met

Please let me know if GSGSPRQLSQNQQT shows Fold enrichment over AAV9 in the brain of NHPs below 2 fold.
met

Lab log: compare recorded Fold enrichment over AAV9 in the brain of NHPs with 2 fold; is it strictly lower for GSGQSHSLATNQQT ?
met

Item GIARTTISGQNQQT : Fold enrichment over AAV9 in the brain of NHPs beneath 2 fold, strictly?
met

Is Fold enrichment over AAV9 in the brain of NHPs of GSIAHVGTGQNQQT strictly below 2 fold?
met

Here's an entry: GSVHLSVTGQNQQT . Is its Fold enrichment over AAV9 in the brain of NHPs below 2 fold?
not met

Given GSGQNQQTSMSNAT , is recorded Fold enrichment over AAV9 in the brain of NHPs strictly lower than 2 fold?
met

Decide: Fold enrichment over AAV9 in the brain of NHPs of GSGQNQQLSRDAST strictly below 2 fold?
met

Is the reported Fold enrichment over AAV9 in the brain of NHPs for GSGMPIRNVQNQQT strictly below 2 fold?
met

Strictly below 2 fold in Fold enrichment over AAV9 in the brain of NHPs? GVVAAHNSGQNQQT
not met

Here's an entry: GSGQNQQTALGVKC . Is its Fold enrichment over AAV9 in the brain of NHPs below 2 fold?
met

# check: Fold enrichment over AAV9 in the brain of NHPs < 2 fold for GSGQIRQLVDNQQT
met

Quick check: does GSGQNQANWVKVQT have Fold enrichment over AAV9 in the brain of NHPs under 2 fold?
met

Find out if reported Fold enrichment over AAV9 in the brain of NHPs for GSGQNGGSSNRQQT is less than 2 fold
met

I wonder whether GPGLGSHSGQNQQT has Fold enrichment over AAV9 in the brain of NHPs below 2 fold. Can you tell?
met

hey, is Fold enrichment over AAV9 in the brain of NHPs for GSGGVTYQSQNQQT lower than 2 fold or not?
met

Fold enrichment over AAV9 in the brain of NHPs under 2 fold? Item: GSGDLVVSTQNQQT
not met

Consider the sequence GTASTYNSGQNQQT . Is its Fold enrichment over AAV9 in the brain of NHPs strictly less than 2 fold?
met
